meta.source: PubChem BioAssay (NCI)

Test system: A498 renal
method-notes: NCI-60 one-dose screen, 48 h (100 = growth as untreated, 0 = no growth, -100 = all killed)
test-parameters: 10 µM unless noted
The panel holds about 83,000 compounds, 20% with a hit somewhere; the sample as a whole holds those more often. Activity calls are given as the source filed them. Rule for the calls: active = growth percent below 10; inactive = the rest.
value-kind: growth

stdin: Report measured growth; entry is O=c1[nH]c(=O)[nH]c(=O)[nH]1
stdout: 129% (inactive)

stdin: Tell me its growth given N#CCC(=O)c1ccccc1 as the entry.
stdout: 117% (inactive)

stdin: Dear colleague, please send me the reported growth for C[C@]12CC[C@@H](OC(=O)N(CCCl)N=O)C[C@@H]1CC[C@@H]1[C@@H]2CC[C@]2(C)C(=O)CC[C@@H]12 when you can.
stdout: -10.1% (active)

stdin: Report growth for CCCCOCCOP(=O)(OCCOCCCC)OCCOCCCC
stdout: 89.1% (inactive)

stdin: Give recorded growth. CC[C@H](C)[C@H](NC(=O)[C@H]1CCCCN1C)C(=O)N(C)[C@H](C[C@@H](OC(C)=O)c1cccc(C(=O)N[C@@H](Cc2ccccc2)C[C@H](C)C(=O)OC)n1)C(C)C
stdout: -5.01% (active)

stdin: For the molecule CC(=O)Cc1ccc2c(c1)OCO2 , report growth.
stdout: 116% (inactive)

stdin: Fill in growth for record C[C@]12CCc3sc(Nc4ccc(F)cc4F)nc3C1=CC[C@@H]1[C@@H]2CC[C@]2(C)C(=O)CC[C@@H]12
stdout: 77.8% (inactive)

stdin: Read off the recorded growth for CC1OC(=O)C(C(C)C)NC(=O)C(C(C)C)OC(=O)C(C(C)C)NC(=O)C(C)OC(=O)C(C(C)C)NC(=O)C(C(C)C)OC(=O)C(C(C)C)NC(=O)C(C)OC(=O)C(C(C)C)NC(=O)C(C(C)C)OC(=O)C(C(C)C)NC1=O (stereo not given)
stdout: -53.2% (active)

stdin: // fetch growth given entry O=C(O)C(F)F
stdout: 84.4% (inactive)

stdin: Note down growth recorded for C[C@]12CC[C@H]3[C@@H](CC=C4c5nc(-c6ccc(Br)cc6)sc5CC[C@@]43C)[C@@H]1CC[C@@H]2O
stdout: 107% (inactive)

stdin: Return growth for the following molecule: C#Cc1cccc(Nc2nc(Cl)nc3cc(NC(=O)CF)ccc23)c1
stdout: 87.4% (inactive)

stdin: Identify the reported growth for the following entry. COc1ccc(N)cc1N
stdout: 122% (inactive)

stdin: Please give measured growth of the following entry: Nc1c(Cl)c(Cl)nc(C(=O)O)c1Cl
stdout: 138% (inactive)

stdin: In one line, give reported growth of the entry NC(=O)Oc1cc(OC(N)=O)cc(N(CCCl)CCCl)c1 .
stdout: 77.6% (inactive)

stdin: # return recorded growth for entry O=C(Cc1ccccc1)c1ccccc1
stdout: 63.6% (inactive)

stdin: Look up and state reported growth for COC(=O)CCP(CCC(=O)OC)c1ccccc1
stdout: 123% (inactive)

stdin: For the molecule O=[N+]([O-])c1ccc(OCc2ccc(S(=O)(=O)F)c(Cl)c2)c(Cl)c1 , report growth.
stdout: 95.6% (inactive)

stdin: Tell me growth reported for CC12CCC3C(CCC4CC(O)CCC43C)C1CCC2=O (stereo not given)
stdout: 162% (inactive)

stdin: Using the record for C[C@]12CCc3sc(Nc4ccc(O)cc4)nc3C1=CC[C@@H]1[C@@H]2CC[C@]2(C)C(=O)CC[C@@H]12 , state its measured growth.
stdout: 101% (inactive)

stdin: // Input: C[C@]12CC[C@H]3[C@@H](C[C@@H]4SC(Nc5cccc(F)c5)=N[C@@]45CC(=O)CC[C@]35C)[C@@H]1CCC2=O . Output its growth only.
stdout: 22.9% (inactive)
